Data provenance: ChEMBL document CHEMBL3885861

Species on record: Rattus norvegicus
Test: Open TG-GATES - Regimen: Daily Repeat
Assay type: toxicity, organism-based, Sprague-Dawley
Design: regimen Daily Repeat, gender Male, age 6 weeks
Details: in vivo, po, 100 mg/kg, 72 h, tissue Plasma, route gavage, dose level Low, time 3 day
parameter: RALB (g/dL)
Value expressed in g/dL; do not type the unit.

Solved cases below.
Fill in the blank: the reported RALB of CCOc1ccc(NC(C)=O)cc1 is ____. 2.7

Fill in the blank: the reported RALB of COC(=O)C1=C(C)NC(C)=C(C(=O)OC)C1c1ccccc1[N+](=O)[O-] is ____. 2.7

New cases:
Fill in the blank: the reported RALB of CNC(=C[N+](=O)[O-])NCCSCc1ccc(CN(C)C)o1 is ____. 3.5

Fill in the blank: the reported RALB of Cc1nnc2n1-c1ccc(Cl)cc1C(c1ccccc1Cl)=NC2 is ____. 2.6

Fill in the blank: the reported RALB of O=C(OC[C@H]1O[C@@H](OC(=O)c2cc(O)c(O)c(OC(=O)c3cc(O)c(O)c(O)c3)c2)[C@H](OC(=O)c2cc(O)c(O)c(OC(=O)c3cc(O)c(O)c(O)c3)c2)[C@@H](OC(=O)c2cc(O)c(O)c(OC(=O)c3cc(O)c(O)c(O)c3)c2)[C@@H]1OC(=O)c1cc(O)c(O)c(OC(=O)c2cc(O)c(O)c(O)c2)c1)c1cc(O)c(O)c(OC(=O)c2cc(O)c(O)c(O)c2)c1 is ____. 4

Fill in the blank: the reported RALB of CN/C(=N/CCSCc1nc[nH]c1C)NC#N is ____. 3.4

---

Species: Rattus norvegicus
Assay: Open TG-GATES - Regimen: Single
Assay type: toxicity, organism-based, Sprague-Dawley
Set-up: regimen Single, gender Male, age 6 weeks
Settings: in vivo, po, 0 mg/kg, 9 h, tissue Plasma, route gavage, dose level Control
parameter: Cl (meq/L)
Value expressed in meq/L; do not type the unit.

Solved cases below.
Fill in the blank: the reported Cl of CN/C(=N/CCSCc1nc[nH]c1C)NC#N is ____. 102.2

Fill in the blank: the reported Cl of CN(C)CCC(c1ccc(Cl)cc1)c1ccccn1 (configuration not stated) is ____. 106.6

Fill in the blank: the reported Cl of Cc1nnc2n1-c1ccc(Cl)cc1C(c1ccccc1Cl)=NC2 is ____. 106

Fill in the blank: the reported Cl of O=C(OC[C@H]1O[C@@H](OC(=O)c2cc(O)c(O)c(OC(=O)c3cc(O)c(O)c(O)c3)c2)[C@H](OC(=O)c2cc(O)c(O)c(OC(=O)c3cc(O)c(O)c(O)c3)c2)[C@@H](OC(=O)c2cc(O)c(O)c(OC(=O)c3cc(O)c(O)c(O)c3)c2)[C@@H]1OC(=O)c1cc(O)c(O)c(OC(=O)c2cc(O)c(O)c(O)c2)c1)c1cc(O)c(O)c(OC(=O)c2cc(O)c(O)c(O)c2)c1 is ____. 105.4

Fill in the blank: the reported Cl of Brc1ccccc1 is ____. 105.8

Fill in the blank: the reported Cl of CCCc1cc(=O)[nH]c(=S)[nH]1 is ____. 107.4

New cases:
Fill in the blank: the reported Cl of COC(=O)C1=C(C)NC(C)=C(C(=O)OC)C1c1ccccc1[N+](=O)[O-] is ____. 106.6

Fill in the blank: the reported Cl of CN1C(=O)CCS(=O)(=O)C1c1ccc(Cl)cc1 (configuration not stated) is ____. 105

Fill in the blank: the reported Cl of NC1=NC(=O)C(c2ccccc2)O1 (configuration not stated) is ____. 104.4
